// data source = PubChem BioAssay (NCI)

Test system: OVCAR-3 ovarian
Method Notes: NCI tumour cell line growth inhibition, 48 h; in the data active = GI50 below about 0.43 µM; inactive = the rest
Pick from yes for active, no for inactive when you respond.

What was the test verdict on COc1ccc(-c2cc3nccn3c(Nc3ncccc3C(N)=O)n2)cc1OC ? no

Kindly provide the recorded test outcome for the following molecule: c1ccc([P+](CCC[P+](c2ccccc2)(c2ccccc2)c2ccccc2)(c2ccccc2)c2ccccc2)cc1 no

Record request — test call for COc1cc(C(=O)/C=C/c2c(-c3cccs3)nc3ccccn23)cc(OC)c1OC no

Assay outcome for CC(C)(C)n1cc(-c2ccnc(NCCCNS(=O)(=O)c3ccc(Cl)cc3)c2)c(-c2cccc(O)c2)n1 : what was it? no

Assay result, entry CCC[CH2][Sn]1([CH2]CCC)[O]CC([CH2][Sn]([c]2ccccc2)([c]2ccccc2)[c]2ccccc2)[O]1 (stereo not given) — outcome? no

Which outcome did this test record for the molecule COc1cc2c(cc1-c1c(C)noc1C)ncc1[nH]c(=O)n([C@H](C)c3ccccn3)c12 ? no

Please share the test call associated with CCN1CCN(c2nc(C)cc(N(CCCNc3ccnc4cc(Cl)ccc34)Cc3ccco3)n2)CC1 . no

Which outcome was entered for the molecule C=C1C(=O)O[C@H]2[C@H]1CC/C(COC(=O)NCc1cccc(OC)c1)=C\CC[C@@]1(C)O[C@@H]21 in this test? no

Hi team, can someone confirm the assay call for O=C1C(Nc2cccc(O)c2)=C(Sc2ccc(Cl)cc2)C(=O)N1Cc1ccccc1 ? no

Identify the outcome logged in this assay for the molecule shown: COc1cc(/C=N/O)nc(-c2ccccn2)c1 yes
